Target: UniProt:P68400
Sequence (P68400 whole entry): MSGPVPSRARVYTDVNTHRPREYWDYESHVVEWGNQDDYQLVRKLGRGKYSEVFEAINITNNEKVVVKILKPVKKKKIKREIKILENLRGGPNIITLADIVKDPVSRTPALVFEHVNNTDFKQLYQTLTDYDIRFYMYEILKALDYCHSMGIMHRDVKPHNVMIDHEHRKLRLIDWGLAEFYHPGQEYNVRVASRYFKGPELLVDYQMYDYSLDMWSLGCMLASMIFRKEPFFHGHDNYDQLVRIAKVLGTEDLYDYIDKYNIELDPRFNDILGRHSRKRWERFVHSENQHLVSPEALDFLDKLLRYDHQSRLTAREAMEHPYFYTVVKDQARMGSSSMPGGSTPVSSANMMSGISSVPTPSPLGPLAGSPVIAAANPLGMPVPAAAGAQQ
Record form. Attribute: IC50. Fill in for each entry.
Numbers only, in nM.

Cc1cnc(Cl)c2c1[nH]c1ccc3cc(O)ccc3c12 | 670

Name the reported IC50 value associated with the compound "Cc1cnc(Cl)c2c1[nH]c1c3ccc(O)cc3ccc12" 1500

Attribution: patent US8686144B2
